System: KM12 colon
Assay: NCI-60 one-dose screen, 48 h (100 = growth as untreated, 0 = no growth, -100 = all killed)
Conditions: 10 µM unless noted
About 83,000 compounds went through this panel and 20% of them were active in at least one assay; those are over-represented in the sample as a whole. Active and inactive are the calls of the source. Rule for the calls: active = growth percent below 10; inactive = the rest.
QUANTITY KIND: growth

### Prompt For the compound shown here, CCNc1ncnc2n[nH]nc12 , give the reported growth.
### Response 105% (inactive)

### Prompt For the compound shown here, OC(COc1ccccc1Cl)CN1CCN(c2ccc(Cl)cc2)CC1 (stereo unspecified) , give the reported growth.
### Response 100% (inactive)

### Prompt For the compound shown here, Cc1cccc(NCS(=O)(=O)O)c1 , give the reported growth.
### Response 112% (inactive)

### Prompt For the compound shown here, O=C(Nc1ccc(-n2ccc3c(NC(=O)c4ccccc4)nccc32)cc1)Nc1ccc(Cl)c(Cl)c1 , give the reported growth.
### Response -49.1% (active)

### Prompt For the compound shown here, Nc1n[nH]c2cccc(C#Cc3cccc(NC(=O)c4cccc(C(F)(F)F)c4)c3)c12 , give the reported growth.
### Response 38.5% (inactive)

### Prompt For the compound shown here, O=C(Nc1ccc(-n2ccc3c(NC(=O)c4ccccc4)ncnc32)cc1)Nc1ccc(Cl)c(C(F)(F)F)c1 , give the reported growth.
### Response -25.4% (active)

### Prompt For the compound shown here, CCn1cc(/C=C2\Oc3cc(OCC#N)ccc3C2=O)c2cc(OC)ccc21 , give the reported growth.
### Response 23.6% (inactive)

### Prompt For the compound shown here, CC(C)(c1ccc(OCC(O)CNCc2ccco2)cc1)c1ccc(OCC(O)CNCc2ccco2)cc1 (stereo unspecified) , give the reported growth.
### Response 82.6% (inactive)

### Prompt For the compound shown here, O=C(O)c1ccccc1C(=O)c1ccc(I)cc1 , give the reported growth.
### Response 106% (inactive)

### Prompt For the compound shown here, O=C(Nc1ccc(-n2ccc3c(NC(=O)c4ccccc4)nccc32)cc1)Nc1cccc(C(F)(F)F)c1 , give the reported growth.
### Response 11.2% (inactive)

### Prompt For the compound shown here, COc1ccc(/C=N/C2=NNC(C)(c3ccccc3O)N2C(Cc2c[nH]c3ccccc23)C(=O)O)cc1 (stereo unspecified) , give the reported growth.
### Response 13.1% (inactive)

### Prompt For the compound shown here, Cc1ccc2c(C3C(C#N)=C(N)Oc4cc5ccccc5cc43)cc(=O)oc2c1 (stereo unspecified) , give the reported growth.
### Response 24.1% (inactive)

### Prompt For the compound shown here, c1ccc2c(c1)Oc1cccnc1-n1nccc1-2 , give the reported growth.
### Response 100% (inactive)

### Prompt For the compound shown here, COc1ccc(-c2coc3c(CO)c(O)ccc3c2=O)cc1 , give the reported growth.
### Response 60.4% (inactive)

### Prompt For the compound shown here, Cc1ccc2nc(-c3ccc(-n4on4-c4ccc(/C=C/c5ccc(-n6on6-c6ccc(-c7nc8ccc(C)cc8s7)cc6)cc5S(=O)(=O)O)c(S(=O)(=O)O)c4)cc3)sc2c1 , give the reported growth.
### Response 103% (inactive)

### Prompt For the compound shown here, O=C(Nc1ccc(-n2cc(-c3ccncc3)c(-c3ccc(O)c(Cl)c3)n2)cc1)c1ccc(Cl)c(C(F)(F)F)c1 , give the reported growth.
### Response 15% (inactive)

### Prompt For the compound shown here, c1nc(SC2=NCCN2)c2[nH]cnc2n1 , give the reported growth.
### Response 47.2% (inactive)

### Prompt For the compound shown here, CCOC(=O)c1[nH]c(-c2ccc(Cl)cc2)cc1-c1cccnc1 , give the reported growth.
### Response 19.8% (inactive)

### Prompt For the compound shown here, FC(F)(F)c1cn(CC2CNC2)c2ncnc(Cl)c12 , give the reported growth.
### Response 104% (inactive)

### Prompt For the compound shown here, Cc1ccccc1C[P+](c1ccccc1)(c1ccccc1)c1ccccc1 , give the reported growth.
### Response 14.5% (inactive)

### Prompt For the compound shown here, CC(=O)Nc1ccc(OC(=O)c2ccccc2O)cc1 , give the reported growth.
### Response 99.1% (inactive)
